TARGET_DESC: T1, Human soluble IL6-R (human, UniProt P08887 20-358)
T1 construct: Bought soluble receptor; biotinylated in some Alphascreen assays; also called sIL6-R; hIL-6R
T1 sequence (looked up): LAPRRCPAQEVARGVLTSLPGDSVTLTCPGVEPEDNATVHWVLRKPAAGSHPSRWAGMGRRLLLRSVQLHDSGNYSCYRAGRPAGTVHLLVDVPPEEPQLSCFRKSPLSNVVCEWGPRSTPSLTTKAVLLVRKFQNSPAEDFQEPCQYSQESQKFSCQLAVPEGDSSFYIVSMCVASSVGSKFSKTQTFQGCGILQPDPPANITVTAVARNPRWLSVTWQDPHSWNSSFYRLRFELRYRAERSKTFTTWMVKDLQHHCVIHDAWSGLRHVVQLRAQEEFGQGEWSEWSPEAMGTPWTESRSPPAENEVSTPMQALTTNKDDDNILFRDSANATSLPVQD
TEST_METHOD_NOTES: SPR (Biacore), off-rate
REPORTED_PROPERTY: koff (s⁻¹)

Recorded koff, per entry:
INSERT INTO measurements (binder, value_observed) VALUES
  ('PMP 34 A5 (VHH, also called PMP34A5(t)) VHH: EVQLVESGGGLVQPGGSLRLSCAASGFTLGYFAIGWFRQAPGKEREGVSCISSSDGSTYYADSVKGRFTVSRDNAKNTVYLQMNSLKPEDTAVYYCATDRSVYYCSGGAPEEYYWGQGTQVTVSS', 0.00168),
  ('PMP 30 A2 (VHH, also called PMP30A2(t)) VHH: EVQLVESGGGLVQPGGSLRLSCAASGFTLDYYVIGWFRQAPGKEREGVSCIGSSDDSTYYADSVKGRFTISRDNAKNTVYLQMNSLKPEDTAVYYCAADLLRTPEFCTDSAPYDYWGQGTQVTVSS', 0.00257);

(A) IL6R10 (VHH, also called PMP35C10; PMP 35 C10) VHH: EVQLVESGGGLVQAGGSLRLSCAASGRTFSSYDMGWYRQAPGKEREFVAVIHWSSGSTYYADPVKGRFTISRDNAKNTVYLQMNSLKPEDTAIYYCNAFLPGPEGFHDYWGQGTQVTVSS
(B) PMP 30 B6 (VHH, also called PMP30B6(t)) VHH: EVQLVESGGGLVQPGGSLRLSCAASGFTLDYYVIGWFRQAPGKEREAVACISSSDRSTYYADSVKGRFTISRDNAKNTGYLQMNSLKPEDTAVYYCAADLLRTPEFCSDSAPYDYWGQGTQVTVSS
Kindly compare A with B and tell me which has the lower koff figure. I would appreciate it if you answered with the label of your choice.
A
(A: 0.000509 s⁻¹, B: 0.000842 s⁻¹)
